Field: MAP, Change (%). Provide a value for each of the compounds that follow.
Test system: Artificially-ventilated pentobarbital anesthetised rabbits
Experiment: Intravenous infusion of carrier solutions saturated with pure nitric oxide gas; exhaled NO and MAP
Assay type: in vivo, rabbit
Settings: infusion versus pre-infusion
Provide the reading as a plain figure in %.

Req: Tell me the measured MAP, Change (%) of CC(C)O [Carrier 2-PropanoI, 2-propanol] , please.
Resp: −15

Req: Tell me the measured MAP, Change (%) of CC(O)CO (centres unmarked) [1,2-Propanediol] , please.
Resp: −16

Req: Tell me the measured MAP, Change (%) of CCCO [Carrier 1-Propanol, 1-Propanol] , please.
Resp: −11

Req: Tell me the measured MAP, Change (%) of CC(O)C(=O)O (centres unmarked) [Lactate] , please.
Resp: −2

Req: Tell me the measured MAP, Change (%) of COC1O[C@H](CO)[C@@H](O)[C@H]1O (some centres unmarked) [1-O-methyI-Ribose, 1-O-methyl-ribose] , please.
Resp: −50

Req: Tell me the measured MAP, Change (%) of OCCCO [1,3-Propanediol] , please.
Resp: −33

Req: Tell me the measured MAP, Change (%) of O=C(O)[C@H](O)[C@@H](O)[C@H](O[C@@H]1O[C@H](CO)[C@H](O)[C@H](O)[C@H]1O)[C@H](O)CO [Lactobionic acid] , please.
Resp: −35

Req: Tell me the measured MAP, Change (%) of CCO [Etanol] , please.
Resp: 0
